I'd appreciate it if you could supply z-score values for the items below.
Test: CREB reporter modulators under forskolin, primary screen, cell-based, PC12, CRE-LacZ reporter, forskolin-stimulated (AID 1146);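 note: PC12 cells with 6xCRE LacZ reporter stimulated by forskolin 10 µM; beta-galactosidase reporter signal reflecting CREB driven transcription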
Conditions: luminescence, 4.5 h, higher = more signal, called active from +8 up or from −8 down
Just the number, please, no unit attached.

Input line: Report z-score for "C=CC[C@@]1(C(=O)N(C)C)N=C(c2ccc(OCCCO)cc2)O[C@@H]1c1ccccc1N=[N+]=[N-]" please.
Output line: -0.825

Input line: Next: "C=CCOC(=O)[C@H]1[C@@H]2C(=O)O[C@@H](c3ccccc3)[C@@H](c3ccccc3)N2[C@@H](c2ccc(OCCOC(=O)[C@@H]3C[C@@H]4C(=O)N5CCC[C@H]5C(=O)N4[C@@H]3c3cccc(OCCO)c3)cc2)[C@]12C(=O)Nc1ccccc12"
Output line: 0.0527

Input line: Next: CN1C2C=C(CCCO)C(C3C(=O)N(C(N)=O)C(=O)C32)C1c1ccc(CN2CCCC2)cc1 (centres undefined)
Output line: 1.31

Input line: Next: "CCCCC(=C=CC[C@@H](O)c1ccccc1OCCO)CCO"
Output line: 0.905

---

I'd appreciate it if you could supply z-score values for the items below.
Assay: PSAC antagonists in infected red cells, primary screen, cell-based, P. falciparum Indochina, OD700, 2 h (AID 1155);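 note: lysis reports solute entry through the parasite surface anion channel PSAC; channel blockers reduce lysis of infected cells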
Conditions: P. falciparum Indochina infected erythrocytes, osmotic lysis OD700; higher = more signal, called active from +8 up or from −8 down
The source made the active and inactive calls.

Input line: Report z-score for "COCCn1c(C(=O)N2CCCC2)cc2c1C[C@H]1CN(C(=O)c3ccccc3)[C@@](Cc3ccc(F)cc3)(C(=O)OC)[C@@H]21" please.
Output line: 0.137 (inactive)

Input line: Next: "COC(=O)[C@@]1(Cc2ccc(F)cc2)[C@H]2c3cc(C(=O)N(C)C)n(Cc4nc5ccccc5[nH]4)c3C[C@H]2CN1C(=O)c1ccccc1"
Output line: 3.05 (inactive)

Input line: Next: "COCCCNC(=O)[C@@]1(Cc2ccccc2)N=C(c2ccc(OCCCO)cc2)O[C@H]1c1ccccc1"
Output line: 3.35 (inactive)

Input line: Next: COc1ccc(C(O)C2C=CC3C(=O)NC(=O)C3N2Nc2ccccn2)cc1 (stereo unspecified)
Output line: 0.874 (inactive)

Input line: Next: "C=CCOC(=O)[C@@H]1[C@H]2C(=O)O[C@H](c3ccccc3)[C@H](c3ccccc3)N2[C@H](c2ccc(OCCOC(=O)[C@@H]3C[C@@H]4C(=O)N[C@@H](CCCC[N+](C)(C)C)C(=O)N4[C@@H]3c3cccc(OCCO)c3)cc2)[C@@]12C(=O)Nc1ccc(I)cc12"
Output line: 2.58 (inactive)

Input line: Next: "COCCOC(=O)N1C(=O)[C@@]2(c3cc(C#CC4(O)CCCCCC4)ccc31)[C@H](c1ccc(O)cc1)N1[C@H](c3ccccc3)[C@H](c3ccccc3)OC(=O)[C@H]1[C@@H]2C(=O)Nc1nc2ccccc2s1"
Output line: 1.05 (inactive)

---

Assay: basal MM1S mitochondrial membrane potential changes, profiling panel, cell-based, JC-1 fluorescence, 24 h, 100 nL compound (AID 1170); note: test concentration not given here
Settings: higher = more signal
quantity.name: z-score
Just the number, please, no unit attached.

Input line: Report z-score for "CCOC(=O)C[C@H]1[C@H](OC(=O)Cc2ccc3c(c2)OCO3)[C@@H](NC(=O)c2ccc3ccccc3c2)c2cc(OCCCO)ccc2N1C(=O)c1ccccc1" please.
Output line: -0.334

Input line: Next: "C=CCOC(=O)[C@H]1[C@@H]2C(=O)O[C@@H](c3ccccc3)[C@@H](c3ccccc3)N2[C@@H](c2ccc(OCCOC(=O)[C@H]3C[C@H]4C(=O)N5CCC[C@H]5C(=O)N4[C@H]3c3ccc(O)cc3)cc2)[C@]12C(=O)Nc1ccc(I)cc12"
Output line: -0.286

Input line: Next: "C=CCN1C(=O)[C@@]2(O[C@@H](CCO)[C@H]([Si](C)(C)c3ccc(OC)cc3)[C@H]2C)c2cc(NC(=O)c3ccc(OC)cc3)ccc21"
Output line: -1.97

---

Test: S. cerevisiae growth modulation with rapamycin, primary screen, strain BY4716, OD600, 96 h (AID 1091); note: test concentration not given here
Conditions: higher = more signal, called active from +8 up or from −8 down
Rule: z-score of 0.08 or more gives fulfilled; anything lower gives not fulfilled.

Input line: Reported z-score reaches at least 0.08 for "CC(C)N1C(=O)c2ccccc2[C@](C)(C(=O)NCc2ccccc2)[C@@H]1c1ccc(CO)cc1" ?
Output line: not fulfilled

Input line: Next: "COCCOC(=O)N1C(=O)[C@@]2(c3cc(C#Cc4ccc(OC)cc4)ccc31)[C@H](c1ccccc1OCCO)N1[C@H](c3ccccc3)[C@H](c3ccccc3)OC(=O)[C@H]1[C@@H]2C(=O)N1CCN(c2ncccn2)CC1"
Output line: fulfilled

Input line: Next: "CC(C)OC(=O)C=C1C[C@@H](c2ccccc2C(F)(F)F)O[C@@H](c2ccccc2C(F)(F)F)O1"
Output line: fulfilled

Input line: Next: [N-]=[N+]=Nc1ccccc1C[C@]1(C(=O)NCC(O)CO)N=C(c2ccc(OCCCO)cc2)O[C@H]1c1ccccc1N=[N+]=[N-] (stereo not given in full)
Output line: not fulfilled

Input line: Next: C=C(C)C1C(=C)CN([C@H](CO)c2ccccc2)C1=O (stereo not given in full)
Output line: not fulfilled

Input line: Next: "CO[C@H]1O[C@H](CO)[C@@H](OC(=O)Nc2ccc(Br)cc2)[C@H](OC(=O)c2cc3ccccc3[nH]2)[C@H]1OC(=O)c1cc2ccccc2[nH]1"
Output line: not fulfilled

Input line: Next: COc1ccc(C(O)C2C=CC3C(=O)N(c4ccccc4)C(=O)C3N2Nc2ccccc2F)cc1OCc1ccccc1 (stereo not given)
Output line: fulfilled

Input line: Next: "COc1ccc([Si](C)(C)[C@H]2[C@H](CCO)O[C@@]3(C(=O)N(Cc4ccc(N5C(=O)COc6ccccc65)cc4)c4ccccc43)[C@@H]2C)cc1"
Output line: fulfilled

Input line: Next: "[N-]=[N+]=NCc1ccccc1C[C@]1(C(=O)N2CCOCC2)N=C(c2ccc(OCCCO)cc2)O[C@H]1c1ccccc1N=[N+]=[N-]"
Output line: fulfilled

Input line: Next: "COc1ccc(CCNC(=O)[C@@H]2c3ccccc3C(=O)N(C3Cc4ccccc4C3)[C@H]2c2ccc(CO)cc2)cc1"
Output line: fulfilled

Input line: Next: "CC(C)(C)OC(=O)CC[C@]1(C(=O)O)N=C(c2ccc(OCCCO)cc2)O[C@H]1c1ccccc1N=[N+]=[N-]"
Output line: not fulfilled

Input line: Next: "CN(C)CCCNC(=O)[C@@]1(c2ccc([N+](=O)[O-])cc2)CC(=O)N(C2CCCCC2)[C@@H]1c1ccc(CO)cc1"
Output line: not fulfilled

Input line: Next: "O=C1O[C@H](c2ccccc2)[C@H](c2ccccc2)N2[C@H]1[C@@H](C(=O)Nc1nc3ccccc3s1)[C@]1(C(=O)Nc3ccc(C#CC4(O)CCCCCC4)cc31)[C@H]2c1ccc(OCCO)cc1"
Output line: fulfilled

Input line: Next: CC(C)c1ccc(NN2C(C(O)C(c3ccccc3)c3ccccc3)C=CC3C(=O)N(c4ccccc4)C(=O)C32)cc1 (stereo not given)
Output line: fulfilled

---

I'd appreciate it if you could supply composite z-score values for the items below.
Experiment: small-molecule microarray binders of probe aWnt5a, primary screen, biochemical, biotinylated probe, 635/667 nm fluorescence (AID 1113);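 note: score merges 667 nm fluorescence intensity with signal-to-noise per printed feature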
Details: higher = more signal
Just the number, please, no unit attached.

Input line: Report composite z-score for "C#CCN(CC=C(C)C)[C@H](CO)c1ccccc1" please.
Output line: 0.0771

Input line: Next: "O=C1NCC(=O)N2[C@@H]1C[C@@H](C(=O)O)[C@H]2c1cccc(OCCO)c1"
Output line: 1.38

Input line: Next: "COC(=O)[C@@]1(Cc2ccccc2)[C@H]2c3cc(C(=O)N4CCCC4)n(CC4CC4)c3C[C@H]2CN1C(=O)c1ccccc1"
Output line: 0.647

Input line: Next: "COC(=O)[C@@]1(Cc2ccccc2)[C@H]2c3cc(C(=O)N4CCCC4)n(Cc4nc5ccccc5[nH]4)c3C[C@H]2CN1C(=O)c1ccccc1"
Output line: 0.0003

Input line: Next: CCCCN1CC=CC23O[C@@H]4/C=C\CCC(C)OC(=O)C4[C@H]2C(=O)N(CCCCCO)[C@@H]3C1=O (some centres not stated)
Output line: -0.191

Input line: Next: "C=CCNC(=O)[C@H]1[C@@H]2C(=O)O[C@@H](c3ccccc3)[C@@H](c3ccccc3)N2[C@@H](c2ccc(OCCO)cc2)[C@]12C(=O)Nc1ccc(C#CC3=CCCCC3)cc12"
Output line: 0.0101

Input line: Next: "CCOC(=O)C[C@H]1[C@H](OC(=O)Cc2ccc3c(c2)OCO3)[C@@H](NC(=O)c2ccc3ccccc3c2)c2cc(OCCCO)ccc2N1C(=O)c1ccccc1"
Output line: -0.147

---

Target: Calmodulin-1 (Homo sapiens)
Experiment: CALM1 binders on microarrays, EGTA buffer, profiling panel, biochemical, small-molecule microarray, Cy5-labelled CALM1 (AID 1111);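 note: labelled calmodulin applied in Tris saline Tween buffer holding calcium plus EGTA and DTT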
Details: Cy5-CALM1 binding fluorescence, higher = more signal
quantity.name: composite z-score
Just the number, please, no unit attached.

Input line: Report composite z-score for "CCCCC=C[C@@H](NC(=O)Oc1cccc(C(F)(F)F)c1)c1ccccc1" please.
Output line: 1.85

Input line: Next: "CC(C)(C)OC(=O)CC[C@@]12N=C(c3ccc(OCCCO)cc3)O[C@@H]1c1ccccc1N(CCS(=O)(=O)c1ccccc1)C2=O"
Output line: 0.887

Input line: Next: "[N-]=[N+]=NCc1ccccc1C[C@]1(C(=O)O)N=C(c2ccc(OCCCO)cc2)O[C@H]1c1ccccc1N=[N+]=[N-]"
Output line: 1.23

Input line: Next: "C=CCNC(=O)[C@@H]1[C@H]2C(=O)O[C@H](c3ccccc3)[C@H](c3ccccc3)N2[C@H](c2ccccc2OCCO)[C@@]12C(=O)N(C(=O)OCCOC)c1ccc(C#CCNC(N)=O)cc12"
Output line: 1.58

The reported measurements were obtained from PubChem BioAssay.
